Reported CC50 values, Influenza B/Florida/4/2006 (Yamagata).

Solved entries:
1. CC(C)(C)C(=O)SCCOP(=O)(OCCSC(=O)C(C)(C)C)OCC1=CC(O)C(n2cnc3c(=O)[nH]c(N)nc32)O1 (stereo not drawn) [SATE-ddhG]; > 1000 µM
2. CC(C)(C)C(=O)SCCOP(=O)(OCCSC(=O)C(C)(C)C)OCC1=CC(O)C(n2ccc(N)nc2=O)O1 (stereo not drawn) [SATE-ddhC]; > 1000 µM
3. CC(C)(C)C(=O)SCCOP(=O)(OCCSC(=O)C(C)(C)C)OCC1=CC(O)C(n2ccc(=O)[nH]c2=O)O1 (stereo not drawn) [SATE-ddhU]; 560 µM
4. CC(C)(C)C(=O)SCCOP(=O)(OCCSC(=O)C(C)(C)C)OCC1=CC(O)C(n2cnc3c(N)ncnc32)O1 (stereo not drawn) [SATE-ddhA]; 180 µM
5. NC(=O)c1ncn([C@@H]2O[C@H](CO)[C@@H](O)[C@H]2O)n1 [Ribavirin, Ribavirin (Virazole), reference compound]; > 1000 µg/mL

Task: Reported CC50 for CC(C)(C)C(=O)SCCOP(=O)(OCCSC(=O)C(C)(C)C)OCC1=CC(O)C(n2cnc3c(=O)[nH]cnc32)O1 (stereo not drawn) [SATE-ddhI] : what is it?
Output: > 1000 µM

The measurements presented in this section are drawn from patent US12466849B2.
